The values you see were collected from patent US8853424B2.

system: transglutaminase (TGase); experiment: Measurement of TG (TGase inhibitory activity, monodansyl cadaverine / N,N-dimethylcasein fluorescence, FDSS 3000); type: biochemical; conditions: TGase activity with compound (10 mM, 1 μL in 0.1 ml enzyme reaction solution); DMSO control taken as 100
Property: TGase activity remaining (% of DMSO control = 100)
Returns: the value as a bare number; no unit string appended.

// worked examples, TGase activity remaining (% of DMSO control = 100) included
Here CNCCOB(c1ccccc1)c1ccc(Oc2ccc(B(OCCNC)c3ccc(CO)cc3)cc2)cc1 [Example 391] was tested on transglutaminase (TGase), and its TGase activity remaining (% of DMSO control = 100) came to 15

Value sought: TGase activity remaining (% of DMSO control = 100), system transglutaminase (TGase), item CCCCB(CCCC)OC(=O)C(N)CC(N)=O (centres unmarked) [Example 183, dibutyl(asparagine-O,N)borane] . Result: 91

GET /values?item= NC(=O)CCC(N)C(=O)OB(c1ccccc1)c1ccccc1 (centres unmarked) [Example 276, diphenyl(glutaminate-O,N)borane] &system= transglutaminase (TGase) returns TGase activity remaining (% of DMSO control = 100): 105

Observed TGase activity remaining (% of DMSO control = 100), transglutaminase (TGase), OB(c1ccc(Oc2ccc(B(O)c3ccc(C(F)(F)F)cc3)cc2)cc1)c1ccc(C(F)(F)F)cc1 [Example 325] : 92

Item OB(c1ccccc1)c1cccc(-c2cccc(B(O)c3ccccc3)n2)n1 [Example 381, 6,6′-(phenylhydroxyboryl)-2,2′-dipyridyl] ; assay system transglutaminase (TGase); TGase activity remaining (% of DMSO control = 100) reported as 55

The value of TGase activity remaining (% of DMSO control = 100) recorded for Cc1ccc(B(OC(=O)C(N)CC(N)=O)c2ccc(C)c(Cl)c2)cc1Cl (centres unmarked) [Example 282] when tested on transglutaminase (TGase) reads 112

Here NC(=O)CCC(N)C(=O)OB(c1ccccc1)c1ccccc1 (centres unmarked) [Example 269, diphenyl(glutaminate-O,N)borane] was tested on transglutaminase (TGase), and its TGase activity remaining (% of DMSO control = 100) came to 95

Next item in the queue.
transglutaminase (TGase) data for Cc1cc(B(OCCN)c2ccccc2)ccc1B(OCCN)c1ccccc1 [Example 146] ; its TGase activity remaining (% of DMSO control = 100): 91

* * *

test system: transglutaminase (TGase); assay: Measurement of TG (TGase inhibitory activity, monodansyl cadaverine / N,N-dimethylcasein fluorescence, FDSS 3000); assay type: biochemical; details: TGase activity with compound (10 mM, 1 μL in 0.1 ml enzyme reaction solution); DMSO control taken as 100
Property: TGase activity remaining (% of DMSO control = 100)
Answer with the value's number alone.

Take a look at these entries with their results.
Lab book: TGase activity remaining (% of DMSO control = 100) of NCC(OB(c1ccccc1)c1ccc(Oc2ccc(B(OC(CN)c3ccccc3)c3ccccc3)cc2)cc1)c1ccccc1 (centres unmarked) noted as 43

Kindly note the recorded TGase activity remaining (% of DMSO control = 100) for NC(c1ccccc1)C(OB(c1ccccc1)c1ccccc1)c1ccccc1 (centres unmarked) , which is 112

For record `OB(c1ccccc1)c1ccc(COCc2cccc(B(O)c3ccccc3)c2)cc1` the listed TGase activity remaining (% of DMSO control = 100) is 81

Lab note: measured TGase activity remaining (% of DMSO control = 100) of `OB(c1cc(Cl)ccc1F)c1cc(Cl)ccc1F` was 111

For record `Cc1ccc(B(OCCN(C)C)c2ccc(Oc3ccc(B(OCCN(C)C)c4ccc(C)cc4)cc3)cc2)cc1` the listed TGase activity remaining (% of DMSO control = 100) is 73

Others:
Short answer for NC(=O)CC(N)C(=O)OB(c1ccccc1)c1ccc(Oc2ccc(B(OC(=O)C(N)CC(N)=O)c3ccccc3)cc2)cc1 (centres unmarked) [Example 390] : TGase activity remaining (% of DMSO control = 100) was 56

Lab note: `NCCOB(c1cc(F)cc(F)c1)c1cc(F)cc(F)c1` gave TGase activity remaining (% of DMSO control = 100) of 107

The recorded TGase activity remaining (% of DMSO control = 100) for `CNCCOB(c1ccccc1)c1ccc(COCc2ccc(B(OCCNC)c3ccccc3)cc2)cc1` is 52

* * *

tested on: transglutaminase (TGase); test: Measurement of TG (TGase inhibitory activity, monodansyl cadaverine / N,N-dimethylcasein fluorescence, FDSS 3000); type: biochemical; conditions: TGase activity with compound (10 mM, 1 μL in 0.1 ml enzyme reaction solution); DMSO control taken as 100
A collection of molecules and their measured TGase activity remaining (% of DMSO control = 100)
Provide a numeric answer; units are not to be included.

The observed TGase activity remaining (% of DMSO control = 100) for CCCCNCCOB(c1cc(Cl)ccc1C)c1cc(Cl)ccc1C [Example 246] when tested with transglutaminase (TGase) stands at 94

I looked up CN(C)CCOB(c1ccccc1)c1cccc(COCc2cccc(B(OCCN(C)C)c3ccccc3)c2)c1 [Example 206] and its TGase activity remaining (% of DMSO control = 100) for transglutaminase (TGase) was 34

// molecule Cc1ccc(B(OC(=O)C(N)CN)c2ccc(C)c(Cl)c2)cc1Cl (stereo not shown) [Example 71] , assay transglutaminase (TGase), TGase activity remaining (% of DMSO control = 100) value: 51

More entries:
// TGase activity remaining (% of DMSO control = 100) (transglutaminase (TGase)) for c1ccc(B(OCc2ccccn2)c2ccc(COc3ccc(B(OCc4ccccn4)c4ccccc4)cc3)cc2)cc1 [Example 429] = 102

* * *

system: transglutaminase (TGase); test: Measurement of TG (TGase inhibitory activity, monodansyl cadaverine / N,N-dimethylcasein fluorescence, FDSS 3000); type: biochemical; conditions: TGase inhibitory activity value, Table 1
Below is a list of entries, each paired with its recorded TGase activity remaining (% of DMSO control = 100) value.

Value of TGase activity remaining (% of DMSO control = 100) reported for the compound NCCOB(c1cc(F)c(F)c(F)c1)c1cc(F)c(F)c(F)c1 [Example 89] is 80

Recorded result, OB(c1ccccc1)c1ccc(COCc2cccc(B(O)c3ccccc3)c2)cc1 [Example 329] , TGase activity remaining (% of DMSO control = 100): 81

In plain terms, NCCOB(c1ccc(F)c(F)c1)c1ccc(F)c(F)c1 [Example 87] has a documented TGase activity remaining (% of DMSO control = 100) of 91

TGase activity remaining (% of DMSO control = 100) reading for NCC(CN)OB(c1ccc(Cl)c(F)c1)c1ccc(Cl)c(F)c1 [Example 235] : 80

According to the records, this compound CCN(CC)CC.CN(C)c1ccc2c(-c3ccc(NC(=S)NCC(N)C(=O)OB(c4ccccc4)c4ccccc4)cc3C(=O)[O-])c3ccc(=[N+](C)C)cc-3oc2c1 (centres unmarked) [Example 175] displays TGase activity remaining (% of DMSO control = 100) of 5

Record summary for Cc1ccc(B(O)c2ccc(Oc3ccc(B(O)c4ccc(C)c(Cl)c4)cc3)cc2)cc1Cl [Example 367] : reported TGase activity remaining (% of DMSO control = 100) = 113

Recorded TGase activity remaining (% of DMSO control = 100) (compound FC(F)(F)c1ccc(C(OB(c2ccccc2)c2ccccc2COCc2ccccc2B(OC(c2ccc(C(F)(F)F)cc2)c2ccccn2)c2ccccc2)c2ccccn2)cc1 (centres unmarked) [Example 134] ): 94

Could you now consider this next compound?
TGase activity remaining (% of DMSO control = 100) in this record for NCCOB(c1ccccc1)c1cccc(-c2cccc(B(OCCN)c3ccccc3)n2)n1 [Example 382] : 76

* * *

tested on: transglutaminase (TGase); assay: Measurement of TG (TGase inhibitory activity, monodansyl cadaverine / N,N-dimethylcasein fluorescence, FDSS 3000); assay type: biochemical; conditions: TGase activity with compound (10 mM, 1 μL in 0.1 ml enzyme reaction solution); DMSO control taken as 100
Property: TGase activity remaining (% of DMSO control = 100)
Give the figure only, with no unit attached.

// worked examples, TGase activity remaining (% of DMSO control = 100) included
Cc1ccc(B(O)c2ccc(Oc3ccc(B(O)c4ccc(C)c(Cl)c4)cc3)cc2)cc1Cl [Example 201] has a reported TGase activity remaining (% of DMSO control = 100) of 99

Lab note: `OB(c1ccc(F)c(Cl)c1)c1ccc(F)c(Cl)c1` gave TGase activity remaining (% of DMSO control = 100) of 117

For this compound ( NCCCC(N)C(=O)OB(c1ccccc1)c1ccccc1 (stereo not shown) [Example 179, diphenyl(2,5-diaminopentanate-O,N)borane] ), measured TGase activity remaining (% of DMSO control = 100) is 127

More entries:
In plain terms, `OB(c1ccccc1)c1ccc(COCCOc2ccc(B(O)c3ccccc3)cc2)cc1` has a documented TGase activity remaining (% of DMSO control = 100) of 92

* * *

test system: transglutaminase (TGase); test: Measurement of TG (TGase inhibitory activity, monodansyl cadaverine / N,N-dimethylcasein fluorescence, FDSS 3000); format: biochemical; conditions: TGase activity with compound (10 mM, 1 μL in 0.1 ml enzyme reaction solution); DMSO control taken as 100
Property: TGase activity remaining (% of DMSO control = 100)
Please reply with the value in numeric form only.

Sure, the documented TGase activity remaining (% of DMSO control = 100) for Cc1cc(B(O)c2ccc(COCc3ccc(B(O)c4ccc(Cl)c(C)c4)cc3)cc2)ccc1Cl [Example 139] is 122

Form: compound = NC(=O)CC(N)C(=O)OB(c1ccc(COCc2ccc(B(OC(=O)C(N)CC(N)=O)c3ccc(C(F)(F)F)cc3)cc2)cc1)c1ccc(C(F)(F)F)cc1 (stereo not shown) [Example 425] ; TGase activity remaining (% of DMSO control = 100) = 130

Reported TGase activity remaining (% of DMSO control = 100) ( `NCCOB(c1ccccc1)c1cccc(COCc2ccccc2B(OCCN)c2ccccc2)c1` ) = 21

// recorded TGase activity remaining (% of DMSO control = 100) for N=C(N)NCCCC(N)C(=O)OB(c1ccccc1)c1ccccc1 (stereo not shown) [Example 122, diphenyl(argininate-O,N)borane] : 93

The compound `N#Cc1ccc(B(SCCN)c2ccc(C#N)cc2)cc1` showed TGase activity remaining (% of DMSO control = 100) equal to 23

***
Entry under test: Cc1ccc(B(OC(=O)c2ccccn2)c2ccc(C)c(Cl)c2)cc1Cl [Example 281] . Its TGase activity remaining (% of DMSO control = 100) was 77

TGase activity remaining (% of DMSO control = 100) for O=C1O[B-](c2ccccc2)(c2ccccc2)[NH2+]C1CO (stereo not shown) [Example 255, diphenyl(serinate-O,N)borane] is 113
